Exercise: state measured relative viability for each of the compounds provided.
- System: NCI-H1793
- protocolDescription: relative viability (nuclei count vs DMSO), 5 days (fraction); higher = more cells survive
- conditionSummary: first compound 0.04 µM
Give the figure by itself; no unit, no explanation.

// assay NCI-H1793, entry O=C(O)c1ccc(-c2c[nH]c3ncc(-c4ccccc4)cc23)cc1C1CCCC1 + CCNC(=O)c1noc(-c2cc(C(C)C)c(O)cc2O)c1-c1ccc(CN2CCOCC2)cc1 [Luminespib] (partner 0.01 µM) , relative viability value = 0.19

// assay NCI-H1793, entry O=C(O)c1ccc(-c2c[nH]c3ncc(-c4ccccc4)cc23)cc1C1CCCC1 + Nc1ncn([C@H]2C[C@H](O)[C@@H](CO)O2)c(=O)n1 [Decitabine] (partner 2 µM) , relative viability value = 0.434

// assay NCI-H1793, entry O=C(O)c1ccc(-c2c[nH]c3ncc(-c4ccccc4)cc23)cc1C1CCCC1 + Cc1cc(Nc2cc(N3CCN(C)CC3)nc(Sc3ccc(NC(=O)C4CC4)cc3)n2)n[nH]1 [Tozasertib] (partner 0.1 µM) , relative viability value = 0.345

* * *

- Tested on: HARA
- protocolDescription: relative viability (nuclei count vs DMSO), 5 days (fraction); higher = more cells survive
- conditionSummary: first compound 0.01581 µM
endpointLabel: relative viability
Give the figure by itself; no unit, no explanation.

# compound CC1(C)CCC(c2ccc(Cl)cc2)=C(CN2CCN(c3ccc(C(=O)NS(=O)(=O)c4ccc(N[C@H](CCN5CCOCC5)CSc5ccccc5)c(S(=O)(=O)C(F)(F)F)c4)cc3)CC2)C1 [Navitoclax] + CC(=O)c1c(C)c2cnc(Nc3ccc(N4CCNCC4)cn3)nc2n(C2CCCC2)c1=O [Palbociclib] (partner 0.5 µM) ; its relative viability = 0.271

# compound CC1(C)CCC(c2ccc(Cl)cc2)=C(CN2CCN(c3ccc(C(=O)NS(=O)(=O)c4ccc(N[C@H](CCN5CCOCC5)CSc5ccccc5)c(S(=O)(=O)C(F)(F)F)c4)cc3)CC2)C1 [Navitoclax] + CCNC(=O)c1noc(-c2cc(C(C)C)c(O)cc2O)c1-c1ccc(CN2CCOCC2)cc1 [Luminespib] (partner 0.01 µM) ; its relative viability = 0.678

# compound CC1(C)CCC(c2ccc(Cl)cc2)=C(CN2CCN(c3ccc(C(=O)NS(=O)(=O)c4ccc(N[C@H](CCN5CCOCC5)CSc5ccccc5)c(S(=O)(=O)C(F)(F)F)c4)cc3)CC2)C1 [Navitoclax] + COc1cccc2cc(-c3nc([C@H]4CC[C@H](C(=O)O)CC4)n4ncnc(N)c34)[nH]c12 [OSI-027] (partner 0.5 µM) ; its relative viability = 0.684

* * *

- Tested on: EMC-BAC-2
- protocolDescription: relative viability (nuclei count vs DMSO), 5 days (fraction); higher = more cells survive
- conditionSummary: first compound 0.01581 µM
Exercise: state measured relative viability for each of the molecules provided.
Give the figure by itself; no unit, no explanation.

# molecule CC1(C)CCC(c2ccc(Cl)cc2)=C(CN2CCN(c3ccc(C(=O)NS(=O)(=O)c4ccc(N[C@H](CCN5CCOCC5)CSc5ccccc5)c(S(=O)(=O)C(F)(F)F)c4)cc3)CC2)C1 [Navitoclax] + CC(C)C[C@H](NC(=O)[C@H](Cc1ccccc1)NC(=O)c1cnccn1)B(O)O [Bortezomib] (partner 0.002 µM) ; its relative viability = 1.19

# molecule CC1(C)CCC(c2ccc(Cl)cc2)=C(CN2CCN(c3ccc(C(=O)NS(=O)(=O)c4ccc(N[C@H](CCN5CCOCC5)CSc5ccccc5)c(S(=O)(=O)C(F)(F)F)c4)cc3)CC2)C1 [Navitoclax] + NC(=O)Nc1cc(-c2cccc(F)c2)sc1C(=O)N[C@H]1CCCNC1 [AZD7762] (partner 0.2 µM) ; its relative viability = 1.26

# molecule CC1(C)CCC(c2ccc(Cl)cc2)=C(CN2CCN(c3ccc(C(=O)NS(=O)(=O)c4ccc(N[C@H](CCN5CCOCC5)CSc5ccccc5)c(S(=O)(=O)C(F)(F)F)c4)cc3)CC2)C1 [Navitoclax] + CS(=O)(=O)N1CCN(Cc2cc3nc(-c4cccc5[nH]ncc45)nc(N4CCOCC4)c3s2)CC1 [Pictilisib] (partner 1 µM) ; its relative viability = 0.646

# molecule CC1(C)CCC(c2ccc(Cl)cc2)=C(CN2CCN(c3ccc(C(=O)NS(=O)(=O)c4ccc(N[C@H](CCN5CCOCC5)CSc5ccccc5)c(S(=O)(=O)C(F)(F)F)c4)cc3)CC2)C1 [Navitoclax] + Cc1cc(Nc2cc(N3CCN(C)CC3)nc(Sc3ccc(NC(=O)C4CC4)cc3)n2)n[nH]1 [Tozasertib] (partner 0.1 µM) ; its relative viability = 0.27

Data provenance: the supplement of paper PMC10307832
